Values compiled from PubChem BioAssay (NCI).

Readings of growth for the listed molecules
- Tested on: NCI-H460 lung
- ASSAY DETAILS: NCI-60 one-dose screen, 48 h (100 = growth as untreated, 0 = no growth, -100 = all killed)
- EXPERIMENTAL SETUP: 10 µM unless noted
Compounds without any hit were thinned out: in the full panel of roughly 83,000, 20% have a hit.

MOLECULE	ENDPOINT UNIT	growth
c1ccc(-c2cc3cc4ccccc4cn3c2)cc1	%	88.3
OC(c1cc(-c2ccc(Cl)cc2)nc2c(Cl)cccc12)C1CCCCN1 (configuration not stated)	%	-87.4
CSc1nc(C)c(C(=O)CCN2CCN(c3ccccn3)CC2)s1	%	106
CC(CSc1n[nH]c(=S)s1)c1ccccc1 (configuration not stated)	%	114
CCOC(=O)NC(/C=C/c1ccccc1)NC(=O)OCC	%	108
O=C1C=CC(=O)N1c1cccc2c1CCCC2	%	109
O=[N+]([O-])C=C(c1ccccc1)c1ccccc1	%	88.4
Cc1nn(CCO)c(C)c1N=[N+]([O-])c1c(C)nn(CCO)c1C	%	76.3
Cc1nc(Sc2nc3ccc([N+](=O)[O-])cc3s2)sc1C	%	11.7
O=[N+]([O-])c1ccc2c(c1)Cc1ccccc1-2	%	99.9
CC1(C)CCCC2=C1C(=O)N(SC(Cl)(Cl)Cl)C2=O	%	109
O=C(CCl)N(c1ccccc1)c1ccccc1	%	111
COC(=O)c1cc([N+](=O)[O-])cc([N+](=O)[O-])c1Cl	%	102
Oc1ccc(Cl)cc1C(c1cc(Cl)ccc1O)C(Cl)(Cl)Cl	%	-12
Oc1c(C(Nc2ccccc2)c2ccccc2)ccc2cccnc12 (configuration not stated)	%	20.7
CC1=CC(=NC(=O)CBr)C=C/C1=N\S(=O)(=O)c1ccccc1	%	98.4
CCSc1nc2ccccc2o1	%	103
CCCCCCCCCCCC[n+]1ccc(CCCCCCCCC)cc1	%	-63.6
O=C1/C(=C/c2ccccc2)CCC/C1=C\c1ccccc1	%	103
COC1=CC(=O)c2c(O)c3c(c(O)c2C1=O)CC(C)(O)OC3 (configuration not stated)	%	4.74
O=[N+]([O-])c1ccc(N2CCN(Cc3ccccc3)CC2)c2c1no[n+]2[O-]	%	-70.8
N#CC(I)CS(=O)(=O)c1ccccc1 (configuration not stated)	%	114
COc1ccc(C(Cn2ccnc2)Sc2ccc(Cl)c(Cl)c2)cc1 (configuration not stated)	%	78.2
Clc1ccc(-n2ncc3c(NCCCN4CCOCC4)ncnc32)cc1	%	102
COC(=O)c1ccc(=O)c2nc3/c(=C/O)c(O)cc(=O)c3[nH]c12	%	19.9
COc1cc(OC)c(/C=C/c2c3ccccc3cc[n+]2C)c(OC)c1	%	10.8
COc1cc(NCc2ccc3nc(N)nc(N)c3c2C)cc(OC)c1OC (tested in a mixture with another compound)	%	14.1
O=[N+]([O-])c1ccc([I+]c2ccccc2)cc1	%	4.38
O=Nc1ccc2ccccc2c1O	%	97.5
O=C(CCl)N1c2ccccc2Sc2c1ccc1ccccc21	%	81.7
O=C1C=CC(=O)N1c1ccc(O)cc1	%	104
CCOc1ccc(C(CN2CCOCC2)C(C)=O)cc1OC (configuration not stated)	%	108
CCCCOS(=O)(=O)c1ccccc1	%	115
O=C1C=CC(O)=CC1=P(c1ccccc1)(c1ccccc1)c1ccccc1	%	73.6
O=C(Nc1cccc(C(F)(F)F)c1)Oc1ccc(Cl)c2cccnc12	%	10.4
NNc1cccc([N+](=O)[O-])c1	%	108
CC(=O)c1ccc2c(c1)CCc1ccccc1-2	%	107
